Sourced from ChEMBL document CHEMBL4680235

Test system: NCI-H460
Assay Protocol: Antiproliferative activity against human NCI-H460 cells assessed as reduction in cell viability measured after 72 hrs by MTT assay
Cond: NCI-H460, 72 h
pIC50: −log10 of the molar value.
Readout Kind: pIC50

Answered cases to consult:
COc1cc2nccc(Oc3ccc(NC(=O)C(C)OC(=O)C4CCCC4)cc3F)c2cc1OC (stereo not given) :: 4.82
COc1cc2nccc(Oc3ccc(NC(=O)C(OC(=O)c4cccc(F)c4)C(C)(C)C)cc3F)c2cc1OC (stereo not given) :: 6.59

[A] COc1cc2nccc(Oc3ccc(NC(=O)C(OC(=O)c4ccccc4F)C(C)(C)C)cc3F)c2cc1OC (stereo not given)
[B] COc1cc2nccc(Oc3ccc(NC(=O)C(OC(=O)c4ccco4)C(C)(C)C)cc3F)c2cc1OC (stereo not given)
[C] COc1cc2nccc(Oc3ccc(NC(=O)C(OC(=O)c4ccccc4)c4ccccc4)cc3F)c2cc1OC (stereo not given)
Data request: Thanks in advance: please rank these 3 entries by pIC50, highest to lowest. I would appreciate it if you listed the labels in the requested order.
Data returned: A, B, C

###

Tested on: MDA-MB-231
Assay Protocol: Antiproliferative activity against human MDA-MB-231 cells assessed as reduction in cell viability measured after 72 hrs by MTT assay
Cond: MDA-MB-231, 72 h
Readout Kind: IC50 (nM)

Here is how some compounds turned out for IC50.
COc1ccc(C(=O)OC(C(=O)Nc2ccc(Oc3ccnc4cc(OC)c(OC)cc34)c(F)c2)C(C)(C)C)cc1 (stereo not given) :: 2580
COc1cc2nccc(Oc3ccc(NC(=O)C(N(C(=O)c4ccc(F)cc4)C(C)(C)C)C(C)(C)C)cc3F)c2cc1OC (stereo not given) :: 1700
COc1ccc(N(C(=O)c2ccc(F)cc2)C(C(=O)Nc2ccc(Oc3ccnc4cc(OC)c(OC)cc34)c(F)c2)C(C)(C)C)cc1OC (stereo not given) :: 8870
COc1cc2nccc(Oc3ccc(NC(=O)C(OC(=O)c4ccccc4F)C(C)(C)C)cc3F)c2cc1OC (stereo not given) :: 440
COc1cc2nccc(Oc3ccc(NC(=O)C(OC(=O)c4ccccc4Cl)C(C)(C)C)cc3F)c2cc1OC (stereo not given) :: 760

[1] COc1cc2nccc(Oc3ccc(NC(=O)C(OC(=O)c4ccco4)C(C)(C)C)cc3F)c2cc1OC (stereo not given)
[2] COc1cc2nccc(Oc3ccc(NC(=O)C(OC(=O)c4ccc(Cl)c(Cl)c4)C(C)(C)C)cc3F)c2cc1OC (stereo not given)
Data request: Returns: the argument ( 1 or 2 ) having the larger IC50. Let me know the label of the one you choose.
Data returned: 1

[I] COc1cc2nccc(Oc3ccc(NC(=O)C(OC(=O)c4cc(OC)c(OC)c(OC)c4)C(C)(C)C)cc3F)c2cc1OC (stereo not given)
[II] COc1cc2nccc(Oc3ccc(NC(=O)C(C)OC(=O)c4ccccc4)cc3F)c2cc1OC (stereo not given)
Data request: Select one. Lower IC50: I or II Give the label under which the chosen entry appears.
Data returned: II

[1] COc1cc2nccc(Oc3ccc(NC(=O)C(OC(=O)c4ccc(C(C)(C)C)cc4)C(C)(C)C)cc3F)c2cc1OC (stereo not given)
[2] COc1cc2nccc(Oc3ccc(NC(=O)C(OC(=O)c4ccc(Br)cc4)C(C)(C)C)cc3F)c2cc1OC (stereo not given)
Data request: Sorting ascending by IC50, which comes first: 1 or 2 ? Please indicate the selected item by its label.
Data returned: 2
(2: 900 nM, 1: 4450 nM)

[P] COc1cc2nccc(Oc3ccc(NC(=O)C(OC(=O)c4ccc(C(F)(F)F)cc4)C(C)(C)C)cc3F)c2cc1OC (stereo not given)
[Q] COc1cc2nccc(Oc3ccc(NC(=O)C(OC(=O)c4ccc(C)cc4)C(C)(C)C)cc3F)c2cc1OC (stereo not given)
Data request: Kindly identify the item with the lower IC50 figure among these two: P and Q Identify your pick by its label.
Data returned: Q
(Q: 1420 nM, P: 3520 nM)

###

Target: Mast/stem cell growth factor receptor Kit (Homo sapiens, UniProt P10721)
Sequence (P10721 whole entry): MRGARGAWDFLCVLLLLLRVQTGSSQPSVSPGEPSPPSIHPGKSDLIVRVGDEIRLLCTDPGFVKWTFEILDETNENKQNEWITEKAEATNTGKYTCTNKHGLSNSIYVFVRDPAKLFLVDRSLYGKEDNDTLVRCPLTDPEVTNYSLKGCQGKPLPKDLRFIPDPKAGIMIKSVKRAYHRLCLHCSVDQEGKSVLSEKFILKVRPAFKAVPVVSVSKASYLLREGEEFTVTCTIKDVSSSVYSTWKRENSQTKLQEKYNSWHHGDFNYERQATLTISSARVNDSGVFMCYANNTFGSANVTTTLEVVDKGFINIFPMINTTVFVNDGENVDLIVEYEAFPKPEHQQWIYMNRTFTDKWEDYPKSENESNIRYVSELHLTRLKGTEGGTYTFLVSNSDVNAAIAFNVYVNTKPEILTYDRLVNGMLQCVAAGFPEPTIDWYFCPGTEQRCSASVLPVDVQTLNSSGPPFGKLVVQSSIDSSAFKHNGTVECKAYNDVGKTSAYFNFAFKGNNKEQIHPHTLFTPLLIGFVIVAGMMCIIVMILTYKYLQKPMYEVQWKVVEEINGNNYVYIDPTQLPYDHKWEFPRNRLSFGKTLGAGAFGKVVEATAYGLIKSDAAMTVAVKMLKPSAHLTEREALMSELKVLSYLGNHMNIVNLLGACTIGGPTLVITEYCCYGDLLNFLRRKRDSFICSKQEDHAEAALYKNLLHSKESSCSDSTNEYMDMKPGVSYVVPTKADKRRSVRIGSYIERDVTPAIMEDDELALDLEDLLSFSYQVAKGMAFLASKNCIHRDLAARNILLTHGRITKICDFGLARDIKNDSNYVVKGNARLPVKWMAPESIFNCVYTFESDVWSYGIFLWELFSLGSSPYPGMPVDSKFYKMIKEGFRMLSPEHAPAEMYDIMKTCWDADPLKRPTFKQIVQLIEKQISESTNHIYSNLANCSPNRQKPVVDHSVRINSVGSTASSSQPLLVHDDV
Readout Kind: pIC50
Give only the number. pIC50 is defined as minus log10 of concentration in molar units.

Data request: Missing value: pIC50, Mast/stem cell growth factor receptor Kit (Homo sapiens, UniProt P10721), entry COc1cc2nccc(Oc3ccc(NC(=O)C(OC(=O)c4ccc(F)cc4)C(C)(C)C)cc3F)c2cc1OC (racemic) . Fill in?
Data returned: 8.35

###

Test system: NCI-H460
Assay Protocol: Antiproliferative activity against human NCI-H460 cells assessed as reduction in cell viability measured after 72 hrs by MTT assay
Cond: NCI-H460, 72 h
pIC50: −log10 of the molar value.
Readout Kind: pIC50

COc1cc2nccc(Oc3ccc(NC(=O)C(OC(=O)c4ccccc4)C(C)(C)C)cc3F)c2cc1OC (stereo not given) :: 6.40

[A] COc1cc2nccc(Oc3ccc(NC(=O)C(OC(=O)c4ccc(Cl)cc4)C(C)(C)C)cc3F)c2cc1OC (stereo not given)
[B] CCCCN(C(=O)c1ccc(F)cc1)C(C(=O)Nc1ccc(Oc2ccnc3cc(OC)c(OC)cc23)c(F)c1)C(C)(C)C (stereo not given)
[C] COc1cc2nccc(Oc3ccc(NC(=O)C(N(C(=O)c4ccc(F)cc4)C4CCCCC4)C(C)(C)C)cc3F)c2cc1OC (stereo not given)
[D] COc1cc2nccc(Oc3ccc(NC(=O)C(OC(=O)c4ccc(C(C)(C)C)cc4)C(C)(C)C)cc3F)c2cc1OC (stereo not given)
[E] COc1cc2nccc(Oc3ccc(NC(=O)C(OC(=O)c4ccccc4)C4CCCCC4)cc3F)c2cc1OC (stereo not given)
Data request: Task field, ranking: reported pIC50, descending order. Present the labels in the sequence the task asks for.
Data returned: A, B, D, C, E

[1] COc1ccc(N(C(=O)c2ccc(F)cc2)C(C(=O)Nc2ccc(Oc3ccnc4cc(OC)c(OC)cc34)c(F)c2)C(C)(C)C)cc1OC (stereo not given)
[2] COc1cc2nccc(Oc3ccc(NC(=O)C(OC(=O)c4cc(OC)c(OC)c(OC)c4)C(C)(C)C)cc3F)c2cc1OC (stereo not given)
[3] COc1cc2nccc(Oc3ccc(NC(=O)C(OC(=O)c4cccc(Cl)c4)C(C)(C)C)cc3F)c2cc1OC (stereo not given)
Data request: Rank the 3 compounds: largest pIC50 first, smallest last. Answer with the labels in sequence, matching the requested order.
Data returned: 3, 2, 1

###

System: NCI-H460
Assay Protocol: Antiproliferative activity against human NCI-H460 cells assessed as reduction in cell viability measured after 72 hrs by MTT assay
Cond: NCI-H460, 72 h
pIC50: −log10 of the molar value.
Readout Kind: pIC50

Use these answered entries as a reference point.
COc1cc2nccc(Oc3ccc(NC(=O)C(OC(=O)c4cccs4)C(C)(C)C)cc3F)c2cc1OC (configuration not stated) :: 6.02
COc1cc2nccc(Oc3ccc(NC(=O)C(OC(=O)c4ccc(Br)cc4)C(C)(C)C)cc3F)c2cc1OC (configuration not stated) :: 6.32
COc1cc2nccc(Oc3ccc(NC(=O)C(OC(=O)c4ccc(C)cc4)C(C)(C)C)cc3F)c2cc1OC (configuration not stated) :: 6.11
COc1cc2nccc(Oc3ccc(NC(=O)C(NC(=O)c4ccc(F)cc4)C(C)(C)C)cc3F)c2cc1OC (configuration not stated) :: 6.42
COc1ccc(C(=O)OC(C(=O)Nc2ccc(Oc3ccnc4cc(OC)c(OC)cc34)c(F)c2)C(C)(C)C)cc1 (configuration not stated) :: 5.90

[1] COc1cc2nccc(Oc3ccc(NC(=O)C(OC(=O)c4ccc(C(F)(F)F)cc4)C(C)(C)C)cc3F)c2cc1OC (configuration not stated)
[2] COc1cc2nccc(Oc3ccc(NC(=O)C(N(C(=O)c4ccc(F)cc4)c4ccc(F)cc4)C(C)(C)C)cc3F)c2cc1OC (configuration not stated)
Data request: Given the two records 1 and 2 , choose the one whose pIC50 value is lower. Kindly give the label for the entry you pick.
Data returned: 2
(2: 5.07, 1: 5.74)

[I] COc1cc2nccc(Oc3ccc(NC(=O)C(OC(=O)c4ccc(F)cc4)C(C)(C)C)cc3F)c2cc1OC (racemic)
[II] COc1cc2nccc(Oc3ccc(NC(=O)C(C)OC(=O)c4cccs4)cc3F)c2cc1OC (configuration not stated)
[III] COc1cc2nccc(Oc3ccc(NC(=O)C(N(C(=O)c4ccc(F)cc4)C(C)(C)C)C(C)(C)C)cc3F)c2cc1OC (configuration not stated)
[IV] COc1cc2nccc(Oc3ccc(NC(=O)C(N(C(=O)c4ccc(F)cc4)c4ccccc4)C(C)(C)C)cc3F)c2cc1OC (configuration not stated)
[V] COc1cc2nccc(Oc3ccc(NC(=O)C(OC(=O)c4ccc(Cl)c(Cl)c4)C(C)(C)C)cc3F)c2cc1OC (configuration not stated)
Data request: Sort low-to-high on pIC50, please. In plain terms: list the labels in the order you were asked to.
Data returned: IV, II, III, V, I
(IV: 5.12, II: 5.61, III: 5.89, V: 6.11, I: 6.85)

[I] COc1cc2nccc(Oc3ccc(NC(=O)C(OC(=O)c4ccccc4Cl)C(C)(C)C)cc3F)c2cc1OC (configuration not stated)
[II] COc1cc2nccc(Oc3ccc(NC(=O)C(OC(=O)c4ccc5ccccc5c4)C(C)(C)C)cc3F)c2cc1OC (configuration not stated)
[III] COc1cc2nccc(Oc3ccc(NC(=O)C(C)OC(=O)c4ccccc4)cc3F)c2cc1OC (configuration not stated)
[IV] COc1cc2nccc(Oc3ccc(NC(=O)C(OC(=O)C4CCCC4)C(C)(C)C)cc3F)c2cc1OC (configuration not stated)
Data request: Order the records so the highest pIC50 appears first and the lowest last. Ranked list of labels, please, in the requested order.
Data returned: I, III, II, IV
